Test system: biotinylated HRP
ASSAY_REMARKS: Model system for selection of SSIA (AK1/streptavidin BSA microparticles + biotinylated HRP)
Assay type: biochemical, horseradish
MEASUREMENT_CONDITIONS: Btn-HRP 0 ng/mL, total HRP 500 ng/mL; SSIA 100 μM final
ENDPOINT: light intensity, BTN-HRP0
Respond numerically, and do not add a unit to the figure.

Query :: Entry CC1(C)OC[C@@H]([C@H]2OC(=O)C(O)=C2O)O1 [5,6iso-propyliene ascorbic acid] has what light intensity, BTN-HRP0?
Result :: 264

---
Query :: Entry CCCCCCCCCCCCCCCC(=O)OC[C@H](O)[C@H]1OC(=O)C(O)=C1O [Ascorbic Acid 6-palmitate] has what light intensity, BTN-HRP0?
Result :: 81
